Origin of values: patent US20210324080A1

target-or-test-system: T1, CTLA-4-hFc (immunogen A; hFc-labeled CTLA-4 extracellular domain protein) (human, UniProt P16410 36-161)
T1 construct: range 36-161; Made in HEK293 cells, purified on protein A; also called CLTA-4-hFc; CTLA-4 protein; not shown: human IgG Fc fragment (hFc) of the pCpC vector
T1 sequence (looked up): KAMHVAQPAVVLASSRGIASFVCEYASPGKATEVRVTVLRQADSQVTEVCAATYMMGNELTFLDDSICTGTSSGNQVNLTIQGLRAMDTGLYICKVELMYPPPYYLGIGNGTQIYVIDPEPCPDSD
test-summary: blocking assay, CTLA-4 protein, competitor B7.2
measurement-name: % Block at 0.32 nM (%)
Write down the numeric answer in % and omit the unit.

Worked set:
{"columns": ["binder", "measurement-name", "reading-unit", "observed-measurement"],
 "data": [
  ["31C12F3 fully human CTLA-4 antibody (human IgG1, kappa) (antibody, V domains shown, also called mAb010) VH: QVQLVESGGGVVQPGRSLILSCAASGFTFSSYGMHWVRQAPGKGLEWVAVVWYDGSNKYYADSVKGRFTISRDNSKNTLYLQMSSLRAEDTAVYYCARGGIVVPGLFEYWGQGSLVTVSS VL: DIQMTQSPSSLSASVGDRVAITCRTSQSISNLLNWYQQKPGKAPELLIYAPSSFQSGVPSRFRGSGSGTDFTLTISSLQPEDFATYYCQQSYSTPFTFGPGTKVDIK", "% Block at 0.32 nM", "%", 84.4],
  ["92C8B6 fully human CTLA-4 antibody (human IgG1, kappa) (antibody, V domains shown, also called mAb42; mAb042) VH: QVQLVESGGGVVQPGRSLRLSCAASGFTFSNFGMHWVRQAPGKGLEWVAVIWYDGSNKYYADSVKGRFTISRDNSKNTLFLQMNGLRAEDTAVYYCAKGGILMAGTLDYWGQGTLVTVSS VL: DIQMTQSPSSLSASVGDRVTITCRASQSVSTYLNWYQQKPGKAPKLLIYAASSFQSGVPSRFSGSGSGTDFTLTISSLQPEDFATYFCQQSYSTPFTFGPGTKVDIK", "% Block at 0.32 nM", "%", 78.5],
  ["40C4C6 fully human CTLA-4 antibody (human IgG1, kappa) (antibody, V domains shown, also called mAb09; mAb009) VH: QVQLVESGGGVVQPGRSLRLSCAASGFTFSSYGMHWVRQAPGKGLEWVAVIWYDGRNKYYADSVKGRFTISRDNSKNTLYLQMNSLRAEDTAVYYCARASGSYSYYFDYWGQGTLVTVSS VL: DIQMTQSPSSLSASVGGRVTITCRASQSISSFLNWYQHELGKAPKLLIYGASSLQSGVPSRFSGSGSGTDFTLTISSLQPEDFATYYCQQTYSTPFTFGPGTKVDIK", "% Block at 0.32 nM", "%", 89.2]
]}

Recorded result, 97A8D1 fully human CTLA-4 antibody (human IgG1, kappa) (antibody, V domains shown, also called mAb49; mAb049) VH: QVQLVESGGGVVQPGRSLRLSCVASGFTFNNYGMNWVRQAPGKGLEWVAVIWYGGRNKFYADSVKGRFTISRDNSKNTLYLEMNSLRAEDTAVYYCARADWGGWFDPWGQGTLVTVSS VL: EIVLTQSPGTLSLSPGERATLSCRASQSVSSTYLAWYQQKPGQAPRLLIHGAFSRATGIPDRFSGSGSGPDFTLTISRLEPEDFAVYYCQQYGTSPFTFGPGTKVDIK , % Block at 0.32 nM: 84.1
